Listed here: items and their measured % M2 activity (40 µM) N31 CD.
- MEASURED TARGET: Eng195 M2-N31 CD peptide (aa 18-60) (Influenza A virus, UniProt P06821, A27V/L43T)
- Assay type: biochemical, Influenza A/England/195/2009 (H1N1)

MOLECULE	MEASURED TARGET	UNIT ABBREV	% M2 activity (40 µM) N31 CD
Cc1c2ccccc2n2cc(-c3ccccc3)nc(C(C)C)c12	Eng195 M2-N31 CD peptide (aa 18-60) (Influenza A virus, UniProt P06821, A27V/L43T)	%	19.5
c1csc(-c2cc(CNC34CC5CC(CC(C5)C3)C4)no2)c1 [M2WJ332, reference compound]	Eng195 M2-N31 CD peptide (aa 18-60) (Influenza A virus, UniProt P06821, A27V/L43T)	%	58.4
COc1ccccc1NC(=S)NC(=O)c1cc2ccccc2cc1OC	Eng195 M2-N31 CD peptide (aa 18-60) (Influenza A virus, UniProt P06821, A27V/L43T)	%	32.8
Cc1ccc2nc(Oc3ccccc3)ccc2c1	Eng195 M2-N31 CD peptide (aa 18-60) (Influenza A virus, UniProt P06821, A27V/L43T)	%	65.8
